- EXPERIMENT_SUMMARY: Pilot pharmacokinetic study in mice
- Format: in vivo, mouse
- EXPERIMENTAL_CONTEXT: female, athymic nude, mouse, plasma; 2 mg/kg oral, at 4 h, nude mice; read-out: Maximum observed plasma concentration (Cmax)
MEASURED_QUANTITY: Cmax (ng/mL)

* CCCCCCCCCCCCCCC1CN2CCCN3CCCCCC132 (stereo not shown) [RC16] | 12.5

###

- Tested on: WIDr
- EXPERIMENT_SUMMARY: MTT cell proliferation assay, WIDr
- Type: cell-based
- EXPERIMENTAL_CONTEXT: Homo sapiens, adult tumor cell line, 48 h, read-out: Cell killing activity IC50
pIC50: −log10 of the molar value.
MEASURED_QUANTITY: pIC50

- CCCCCCCCCCCCCCC1CN2CCCN3CCCCCC132 (stereo not shown): 5.22
